assay: Cyclic voltammetry in acetonitrile; type: physicochemical; details: Tables S1/S2, peak separation, acetonitrile, 100 mV.s-1
QUANTITY: Epa. Epc (mV)
Quick note: give the figure in mV, leave out the unit.

Field Epa. Epc (entry COc1ccc(NC2=CC(=O)c3ccccc3C2=O)cc1 ) reads 120

Field Epa. Epc (entry CCN(CC)C1=CC(=O)C(=O)c2ccccc21 ) reads 120

Field Epa. Epc (entry O=C1C=CC(=O)c2ccccc21 [Compound 1, 1,4-naphthoquinone, reference compound] ) reads 80

Field Epa. Epc (entry CCCCNC1=CC(=O)c2ccccc2C1=O ) reads 100

Field Epa. Epc (entry Nc1ccc(NC2=CC(=O)c3ccccc3C2=O)cc1 ) reads 80
